These data points were gathered from PubChem BioAssay (NCI).

GI50 reference
- Tested on: ACHN renal
- experiment_notes: NCI tumour cell line growth inhibition, 48 h

Specify GI50 for Clc1ccc(Nc2nnc(CNc3ccccc3)c3ccccc23)cc1 and stop.
3100 nM

Specify GI50 for Clc1ccc(CNc2ccc3nc(CCC4CCCCC4)[nH]c3c2)cc1 and stop.
3030 nM

Specify GI50 for Cn1cc(C2=C(Oc3ccccc3)C(=O)NC2=O)c2ccccc21 and stop.
> 25000 nM

Specify GI50 for Oc1c(I)cc(I)cc1CNCCN(Cc1ccccn1)Cc1ccccn1 and stop.
1130 nM

Specify GI50 for O=C1C=CC=C[C@@H]2C(C3OCCO3)CC[C@H]12.[C-]#[O+].[C-]#[O+].[C-]#[O+].[Fe] (stereo partly drawn) and stop.
34800 nM

Others:
Specify GI50 for O=C(OCc1nc2nc(Cl)nc(N3CCOCC3)c2[nH]1)n1ccnc1 and stop.
1120 nM

Specify GI50 for CSc1nc(N)cc(Oc2ccc(-c3nc(Nc4cccc(C(F)(F)F)c4)n[nH]3)cc2)n1 and stop.
873 nM

Specify GI50 for O=c1[nH]cnc2c1ccn2C1OC(CO)C(O)C1O (stereo not drawn) and stop.
2510 nM

====

- Test system: NCI-H522 lung
- experiment_notes: NCI tumour cell line growth inhibition, 48 h
experimental_readout: TGI (µM)
Your answer is read as µM, so omit the unit and give the number.

Take a look at these entries with their results.
Specify TGI for Cc1cc(S(=O)(=O)NC2=NCC(C)NN2)c(S)cc1Cl (stereo not given) and stop.
47

Specify TGI for CC(C)(C)C1=NC(=P(c2ccccc2)(c2ccccc2)c2ccccc2)C(=O)O1 and stop.
90.8

Continue with the compound presented below.
Specify TGI for O=C1Nc2ccccc2/C1=C\c1c[nH]c2ccc(Br)cc12 and stop.
3.77

====

- Test system: M14 melanoma
- experiment_notes: NCI tumour cell line growth inhibition, 48 h
experimental_readout: TGI

Provide the reported TGI (system: M14 melanoma) for Cc1cc(C)nc(NS(=O)(=O)c2ccc(NC(=O)c3cccc4c(Nc5ccc(S(=O)(=O)Nc6nc(C)cc(C)n6)cc5)c5ccc(Cl)cc5nc34)cc2)n1
> 100 µM

Provide the reported TGI (system: M14 melanoma) for COc1cc(C2CC(c3cccc(Nc4ccnc5cc(Cl)ccc45)c3)=NN2C=O)cc(OC)c1OC (stereo unspecified)
2 µM

Provide the reported TGI (system: M14 melanoma) for COc1cccc(/C=C(\NC(C)=O)c2nc3ccc(Cl)cc3[nH]2)c1
> 100 µM

Provide the reported TGI (system: M14 melanoma) for O=c1oc2ccc(Br)cc2c(=O)n1-c1ccc(Br)cc1F
3.59 µM

Provide the reported TGI (system: M14 melanoma) for CS(=O)(=O)CCN(CC#N)Cc1ccc(-c2ccc3ncnc(Nc4ccc(OCc5cccc(F)c5)c(Cl)c4)c3c2)o1
> 25 µM

Provide the reported TGI (system: M14 melanoma) for O=C1NC(=NCc2ccccc2Br)S/C1=C\c1ccc2ncccc2c1
> 25 µM

Provide the reported TGI (system: M14 melanoma) for N#CSCc1nc2ccc(Cl)cc2c(-c2ccccc2)[n+]1[O-]
42.1 µM

Provide the reported TGI (system: M14 melanoma) for O=C(NCCCN1CCC(N2CCCCC2)CC1)C1=Cc2cc(Br)ccc2OC1
4.71 µM

Others:
Provide the reported TGI (system: M14 melanoma) for c1ccc(-c2[o+]c(-c3ccccc3)c(-c3ccccc3)c(-c3ccccc3)c2-c2ccccc2)cc1
> 100 µM

Provide the reported TGI (system: M14 melanoma) for CC(C)(C)OC(=O)N1CC(O)O[C@H](c2ccccc2)[C@@H]1c1ccccc1 (stereo partly specified)
30.2 µM

Provide the reported TGI (system: M14 melanoma) for COC12OCCN(CCO)C1=CC(=O)C1(C)N=NC(C)C12 (stereo unspecified)
> 100 µM

Provide the reported TGI (system: M14 melanoma) for CCOC(=O)Nc1cc(NC(/C=N/NC(C)=O)C(=O)OCC)c(OC)cc1NC(C)=O (stereo unspecified)
> 100 µM

Provide the reported TGI (system: M14 melanoma) for CNS(=O)(=O)NNS(=O)(=O)c1cccc([N+](=O)[O-])c1
> 100 µM

====

- Test system: MALME-3M melanoma
- experiment_notes: NCI tumour cell line growth inhibition, 48 h
TGI reference

Specify TGI for COc1ccc(C(=O)NCCC2=CCCCC2)cc1 and stop.
> 100 µM

Specify TGI for COc1ccc2c(c1)CCc1c(C(C)=O)c3ccccc3n1C2 and stop.
74.4 µM

Specify TGI for CCOc1ccccc1N1C(=O)C(=O)C(c2nc3ccccc3s2)C(=O)C1=O and stop.
> 100 µM

Specify TGI for Oc1c(I)cc(I)cc1CNCCN(Cc1ccccn1)Cc1ccccn1 and stop.
3.33 µM

Others:
Specify TGI for CC(C)NC(=O)OCc1c(COC(=O)NC(C)C)c(-c2ccc[n+](COC(=O)C(C)C)c2)n2c1CCC2 and stop.
> 100 µM

Specify TGI for COc1c2c(cc3occ(-c4ccc(CC=C(C)C)cc4)c(=O)c13)OC(C)(C)C=C2 and stop.
> 100 µM

Specify TGI for CS(=O)(=O)CCN(CC#N)Cc1ccc(-c2ccc3ncnc(Nc4ccc(OCc5cccc(F)c5)c(Cl)c4)c3c2)o1 and stop.
> 25 µM

Specify TGI for COc1ccc(N2C(Cl)C(=O)C2c2c[nH]c3ccccc23)cc1 (stereo not drawn) and stop.
> 100 µM

Specify TGI for Cc1cc2c(c3c1c1ccccc1n3C)C(=O)c1ccccc1C2=O and stop.
> 100 µM

Specify TGI for CCCCCCN1C(=O)CC(=O)N(CCCCCC)S1(=O)=O and stop.
72.8 µM

Specify TGI for S=c1nc2sc3c(c2c(Nc2ccccc2)[nH]1)CCCC3 and stop.
> 100 µM

Specify TGI for CCN(CC)CCCNc1[nH]ncc2cc3c(nc4ccc(OC)cc43)c(C)c12 and stop.
28.3 µM

Specify TGI for CCOC(=O)Cn1c(=O)[nH]c(=O)c2c1ncn2Cc1ccccc1 and stop.
> 100 µM

Specify TGI for COc1ccc(C2C(C#N)=C(N)Oc3c2sc2c(F)cccc32)cc1 (stereo not drawn) and stop.
26.3 µM

Specify TGI for CCOP(=O)(OCC)C1CC(C)OC1=O (stereo not drawn) and stop.
> 100 µM

Specify TGI for CCn1c(-c2nonc2N)nc2c(C#CC(C)(C)O)nc(CN3CCCC3)cc21 and stop.
> 25 µM

Specify TGI for CNC(=O)Oc1ccc(C(=S)Nc2ccc(Br)cc2)cc1 and stop.
98.8 µM

Specify TGI for Cn1ccnc1Sc1ccc(/C=N\NC(=O)c2cccc(F)c2)cc1[N+](=O)[O-] and stop.
> 100 µM

Specify TGI for Nc1cccc(C2CCCc3c2[nH]c2ccccc32)c1 (stereo not drawn) and stop.
48.3 µM

====

- Tested on: SF-295 CNS
- experiment_notes: NCI tumour cell line growth inhibition, 48 h
experimental_readout: TGI

Take a look at these entries with their results.
Specify TGI for CC1=C(C(=O)CC(=O)C(=O)Nc2cccc(C)c2C)Sc2ccccc2N1 and stop.
> 100 µM

Specify TGI for CN1c2ccc(O)c(O)c2-c2cc(O)cc3c2C1CCC3 (stereo not given) and stop.
> 100 µM

Others:
Specify TGI for CC(C)(C)C(=O)C(C(=O)c1ccccc1)C(=O)C(C)(C)C and stop.
> 100 µM

Specify TGI for Cc1cc(C)nc(Sc2c([N+](=O)[O-])ncn2C)n1 and stop.
> 100 µM

Specify TGI for C=CCCCCCCCC(O)C1C[C@H](O)C(CCCCC)O1 (stereo not given in full) and stop.
33 µM

Specify TGI for Nc1ccc(Cc2ccc(N=Cc3ccc(OCc4cccc(COc5ccc(C=Nc6ccc(Cc7ccc(N)cc7)cc6)cc5)n4)cc3)cc2)cc1 and stop.
> 100 µM

Specify TGI for N#Cc1c2c(c(Nc3ccc(F)cc3)n3c1nc1ccccc13)CCCC2 and stop.
> 100 µM

Specify TGI for O=C(/C=C/c1ccc(Cl)cc1)c1ccc(Cl)c(Cl)c1 and stop.
> 100 µM

Specify TGI for C=CCN1CN(C2CCCCC2)CSC1=S and stop.
> 81.5 µM

Specify TGI for NC1CCCCC1N.O=C([O-])c1cc(S(=O)(=O)Nc2cc(S(=O)(=O)[O-])cc3cc(S(=O)(=O)[O-])cc(O)c23)ccc1[O-].[Pt+4] and stop.
> 100 µM

====

- Tested on: MCF7 breast
- experiment_notes: NCI tumour cell line growth inhibition, 48 h
TGI reference

Specify TGI for CC(=O)N1C(Nc2ccccc2)CCN1c1ccccc1 (stereo unspecified) and stop.
> 10 µM

Specify TGI for CC(=O)OCC1OC(n2c3c(cc(C#N)c2=O)CCCCCC3)C(OC(C)=O)C(OC(C)=O)C1OC(C)=O (stereo unspecified) and stop.
> 100 µM

Specify TGI for CC1=CC(O)(c2ccccc2)C(N2CCOCC2)N1O (stereo unspecified) and stop.
> 100 µM

Specify TGI for COc1c2c(cc3occ(-c4ccc(CC=C(C)C)cc4)c(=O)c13)OC(C)(C)C=C2 and stop.
> 100 µM

Specify TGI for N[C@H]1C[C@@H]1c1ccc(-c2cccc(O)c2)cc1 and stop.
> 100 µM

Others:
Specify TGI for COc1ccn(CC(=O)c2cc3ccccc3[nH]2)c(=O)n1 and stop.
> 100 µM
